SYSTEM: human antibody (gamma globulin preparation, manufactured by The Chemo-Sero-Therapeutic Research Institute) (human)
PROTOCOL_SUMMARY: ELISA; human gamma globulin immobilised; acid treatment 50 mM buffer pH 3.2, 25 C, 5 min; elution rate = 1 - remaining binding activity
Give measured Elution rate [%] for each item. Keep answers brief.
Write down the value, and be sure its unit follows.

{"BINDER": "FpL_C3KX 10b (designed binder) ETPGESAEEVTIRVNLIFADGRRQTAEFIGTFEEATAEAYAYAHLLAHDYGEFTADLEDGGYTLNIRFVGHHHHHH", "Elution rate [%]": "67%"}
{"BINDER": "FpL_C3KX 7e (designed binder) ETPGESAEEVTIRVNLIFADGRIQTAEFIGTFEEATAEAYAYANLLARDYGEFTADLEDGGYTINIRFVGHHHHHH", "Elution rate [%]": "46%"}
{"BINDER": "FpL_C3KX 9a (designed binder) ETPGESAEEVTIRVNLIFADGRRQTAEFIGTFEEATAEAYAYARLLARDYGEFTADLEDGGYTINIRFVGHHHHHH", "Elution rate [%]": "70%"}
{"BINDER": "FpL_C3KX 9e (designed binder) ETPGESAEEVTIRVNLIFADGRIQTAEFIGTFEEATAEAYAYAHLLARDYGEFTADLEDGGYTLNIRFVGHHHHHH", "Elution rate [%]": "68%"}

Q. Bench note: what Elution rate [%] did FpL_C3KX 10a (designed binder) ETPGESAEEVTIRVNLIFADGRRQTAEFIGTFEEATAEAYAYARLLAHDYGEFTADLEDGGYTLNIRFVGHHHHHH show?
A. 75%
